// growth lookup, one value per entry
# System: SK-MEL-5 melanoma
# protocolDescription: NCI-60 one-dose screen, 48 h (100 = growth as untreated, 0 = no growth, -100 = all killed)
# particulars: 10 µM unless noted
About 83,000 compounds went through this panel and 20% of them were active in at least one assay; those are over-represented in the sample as a whole.
The figure you give is taken to be in %; do not add the unit.

Query :: Consider the compound shown here: Cc1cc([N+](=O)[O-])c(Cl)cc1NS(=O)(=O)c1ccccc1 What is its recorded growth?
Result :: 43.6

Query :: Also CC12CCC(=O)C=C1CCC1C2CCC2(C)C(C(=O)COC(=O)Cc3ccc(N(CCCl)CCCl)cc3)CCC12 (configuration not stated) , if possible.
Result :: 85

Query :: Entry Cc1nnc([S-])s1.[Au+].c1ccc([PH+](c2ccccc2)c2ccccc2)cc1 please
Result :: -45.9

Query :: Note, next up: CC1(C)N=C(N)N=C(N)N1c1ccc(OCCCCOc2ccc(S(=O)(=O)F)cc2)c(Cl)c1
Result :: 9.68

Query :: Moving on to COc1ccc(-c2ccc(OC)c(OC)c2OC)cc1
Result :: 15.3

Query :: Now the same for CC1COC(=O)C1 (configuration not stated)
Result :: 99.6

Query :: Lookup C[C@]12CCC(=O)CC1CC[C@@H]1C2CC[C@@]2(C)C1CC[C@@H]2OC(=O)CC[Se][Se]CCC(=O)O[C@H]1CCC2[C@@H]3CCC4CC(=O)CC[C@]4(C)C3CC[C@@]21C (some centres not stated)
Result :: 93.2

Query :: What about CCOc1c(Cl)cc(CNC(C)C(O)c2ccccc2)cc1OC (configuration not stated) ?
Result :: 82.7
